PROCEDURE DETAILS: Oral bioavailability in Sprague-Dawley rat at 25 mg/kg measured for 24 hrs by LC-MS/MS analysis
Type: ADME, organism-based
REPORTED CONDITIONS: in vivo
EXPERIMENTAL READOUT: bioavailability (%)
Numbers only; they are read as %.

Assign bioavailability to the following record: O=c1cnc(Cc2ccccc2)nn1Cc1ccc(Cl)cc1Cl
12.6
